Data provenance is paper PMC6312196.

Test target: ABL1(T315I) (Homo sapiens, UniProt P00519+P11274, T315I)
Procedure text: Cellular ABL1 kinase phosphorylation assay in KCL22-IR
Condition details: read-out: IC50 (mean ±SD) cellular ABL1 activity, KCL22-IR; 2 hours incubation, KCL22-T315I cells
Some molecules, each annotated with its measured IC50.

Entry under review: Cc1ncc(C(=O)Nc2ccc(CN3CCN(C)CC3)c(C(F)(F)F)c2)cc1C#Cc1cnc(N)c2ncccc12 . Reported IC50?
18.9 nM

Entry CN1CCN(Cc2ccc(NC(=O)c3cncc(C#Cc4c(N)ncc5ccc(F)cc45)c3)cc2C(F)(F)F)CC1 : reported IC50 = ?
36.4 nM

Consider the molecule CN1CCN(Cc2ccc(NC(=O)c3cncc(C#Cc4cnc(N)c5ncccc45)c3)cc2C(F)(F)F)CC1 and give its measured IC50.
26 nM

* * *

Parameter IC50: see the listing below.
Test system: KCL22
Procedure text: Cellular proliferation assay
Assay type: cell-based
Condition details: read-out: IC50 (mean ±SD) KCL22; anti-proliferation, 72 h
Numbers only; they are read as nM.

Solved entries:
>  <Smiles representation>
Cc1ccc(C(=O)Nc2ccc(CN3CCN(C)CC3)c(C(F)(F)F)c2)cc1C#Cc1cnc(N)c2ncccc12

>  <Measurement units>
nM

>  <IC50>
0.18

$$$$
>  <Smiles representation>
CN1CCN(Cc2ccc(NC(=O)c3cncc(C#Cc4c(N)ncc5ccc(F)cc45)c3)cc2C(F)(F)F)CC1

>  <Measurement units>
nM

>  <IC50>
0.444

$$$$
>  <Smiles representation>
Cc1ncc(C(=O)Nc2ccc(CN3CCN(C)CC3)c(C(F)(F)F)c2)cc1C#Cc1cnc(N)c2ncccc12

>  <Measurement units>
nM

>  <IC50>
0.303

$$$$

Please turn your attention to the following entry.
IC50 for CN1CCN(Cc2ccc(NC(=O)c3cncc(C#Cc4cnc(N)c5ncccc45)c3)cc2C(F)(F)F)CC1 ?
1.02

* * *

Test target: ABL1 (Homo sapiens)
Sequence (P00519 242-493 limits assumed): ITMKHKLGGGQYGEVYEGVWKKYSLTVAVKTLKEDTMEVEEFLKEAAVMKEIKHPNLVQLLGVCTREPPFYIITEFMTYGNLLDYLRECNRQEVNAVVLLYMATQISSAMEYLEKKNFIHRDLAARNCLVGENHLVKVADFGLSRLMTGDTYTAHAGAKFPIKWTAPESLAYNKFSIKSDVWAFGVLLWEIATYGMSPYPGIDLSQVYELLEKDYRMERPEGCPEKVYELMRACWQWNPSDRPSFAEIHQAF
Documented IC50 across a set of compounds

Worked examples follow.
>  <Smiles representation>
CN1CCN(Cc2ccc(NC(=O)c3cncc(C#Cc4cnc(N)c5ncccc45)c3)cc2C(F)(F)F)CC1

>  <IC50>
< 5 nM

$$$$
>  <Smiles representation>
CN1CCN(Cc2ccc(NC(=O)c3cncc(C#Cc4c(N)ncc5ccc(F)cc45)c3)cc2C(F)(F)F)CC1

>  <IC50>
< 5 nM

$$$$

Now turn to the next compound.
Requested field: IC50. Item: Cc1ncc(C(=O)Nc2ccc(CN3CCN(C)CC3)c(C(F)(F)F)c2)cc1C#Cc1cnc(N)c2ncccc12
< 5 nM

* * *

Test target: ABL1(T315I) (Homo sapiens, UniProt P00519, T315I)
Procedure text: Enzymatic inhibition of ABL1
Condition details: read-out: IC50 ABL1(T315I); enzyme, Figure 8B
Measured pIC50, listed per entry.
// pIC50 here means minus log10 of the molar concentration (mol/L)

Example compounds with recorded pIC50:
>  <Smiles representation>
CN1CCN(Cc2ccc(NC(=O)c3cncc(C#Cc4cnc(N)c5ncccc45)c3)cc2C(F)(F)F)CC1

>  <pIC50>
7.39

$$$$
>  <Smiles representation>
CN1CCN(Cc2ccc(NC(=O)c3cncc(C#Cc4c(N)ncc5ccc(F)cc45)c3)cc2C(F)(F)F)CC1

>  <pIC50>
7.48

$$$$

Param item = Cc1ncc(C(=O)Nc2ccc(CN3CCN(C)CC3)c(C(F)(F)F)c2)cc1C#Cc1cnc(N)c2ncccc12 ; retrieve measured pIC50.
8.33

* * *

Test system: K562
Procedure text: Cellular proliferation assay
Format: cell-based
Condition details: read-out: IC50 (mean ±SD) K562; anti-proliferation, 72 h
Measured metric: pIC50
Scale: negative log10 of molar concentration, which is what pIC50 denotes.

These recorded examples may help you get a feel for the data.
>  <Smiles representation>
CN1CCN(Cc2ccc(NC(=O)c3cncc(C#Cc4c(N)ncc5ccc(F)cc45)c3)cc2C(F)(F)F)CC1

>  <pIC50>
9.16

$$$$
>  <Smiles representation>
Cc1ncc(C(=O)Nc2ccc(CN3CCN(C)CC3)c(C(F)(F)F)c2)cc1C#Cc1cnc(N)c2ncccc12

>  <pIC50>
8.76

$$$$
>  <Smiles representation>
Cc1ccc(C(=O)Nc2ccc(CN3CCN(C)CC3)c(C(F)(F)F)c2)cc1C#Cc1cnc(N)c2ncccc12

>  <pIC50>
8.73

$$$$

Could you now look at the following compound, please?
What does the record list as pIC50 for CN1CCN(Cc2ccc(NC(=O)c3cncc(C#Cc4cnc(N)c5ncccc45)c3)cc2C(F)(F)F)CC1 ?
9.12
